- Test system: EKVX NSCLC
- test.details: NCI tumour cell line growth inhibition, 48 h

compound	TGI
Cc1[nH]c(=O)[nH]c(=O)c1/C=C/C(=O)O	> 1000 µM
CN1NC(=Nc2ccccc2)Sc2c1cnn(-c1ccccc1)c2=O	> 100 µM
O=C1c2ccc3c4ccccc4n(Cc4ccccc4)c3c2C(=O)N1c1ccccc1	39.4 µM
Cc1cc(I)cc(CN(C)CCCN2CCOCC2)c1O	> 100 µM
Cc1ccc2c(c1)[nH]c1cc(C(F)(F)F)ccc1[p+]2=O (stereo unspecified)	22.2 µM
CCOC(=N)CC(=O)Nc1cccc(C)c1C	> 100 µM

----------
- System: UACC-62 melanoma
- test.details: NCI tumour cell line growth inhibition, 48 h

compound	comparator	TGI, µM
C1CNCCNCCN1	>	100
COCCOc1cnc2ccn([C@H](C)c3nnc4c(F)cc(-c5cnn(C)c5)cn34)c(=O)c2c1	>	100
Cc1cc2c(cc1Cl)SC(=Nc1ccc(Cl)cc1)N(S(=O)(=O)c1ccccc1)S2(=O)=O	=	23.8
Cc1cc(C)[n+](CCOc2ccc(/C(=C(/Cl)c3ccccc3)c3ccccc3)cc2)c(C)c1	=	4.92
C=CCNC(=O)N(CCC)CCCCC(NC(C)=O)C(=O)NCc1ccccc1 (stereo not given)	>	100
CCn1nc2c3c(ncn3C(C)(C)O2)c1=O	>	100
Cc1cc(N/N=C/c2nc(-c3ccc(Br)cc3)oc2C)c2cc(Br)ccc2n1	=	4.58
Oc1cc(C2OCCCO2)cc(O)c1O	>	100
CC(=O)c1sc(-c2nc(C)c(C(=O)/C=C\c3ccc(/C=C\C(=O)c4sc(-c5nc(C)c(C(C)=O)s5)nc4C)cc3)s2)nc1C	>	100
CC(=O)c1ccc2c3c1[C@@H]1O[C@@H]1c1cccc(c1-3)[C@@H]1O[C@H]21	=	31.1
